experiment: Stability of compound in PBS at pH 7.4 assessed as parent compound remaining at 10 uM measured after 8 hrs in presence of GSH by RP-HPLC analysis; format: physicochemical; conditions: PBS with GSH, read-out: Stability
Experimental Endpoint: remaining at 8 h, 10 µM
I'd appreciate it if you included the unit after the number.

Compound	Experimental Endpoint	Reported Measurement
CC(=O)N[C@@H](CCCNC(=N)N)C(=O)N[C@@H](C)C(=O)N[C@H]1CNC(=O)CC[C@@H](C(=O)O)NC(=O)[C@H](Cc2c[nH]cn2)NC(=O)[C@H](Cc2ccc3ccccc3c2)NC(=O)[C@H](CCCNC(=N)N)NC1=O	remaining at 8 h, 10 µM	100%

Shift focus to the following entry.
// query So what's the measured remaining at 8 h, 10 µM for this one? CC(=O)N[C@@H](CCCNC(=N)N)C(=O)N[C@@H](C)C(=O)N[C@@H]1CSSC(C)(C)[C@@H](C(=O)O)NC(=O)[C@H](Cc2cnc[nH]2)NC(=O)[C@H](Cc2ccc3ccccc3c2)NC(=O)[C@H](CCCNC(=N)N)NC1=O
// result 52%
